- Tested on: Pseudomonas fluorescens HPPD polypeptide (wild-type and mutants)
- method-notes: Coupled HPPD activity assay: turnover and residual turnover in crude HPPD polypeptide extracts with and without Cmpd. 1
- Type: biochemical
- cond: absence of Cmpd. 1; changes in absorbance (OD) at 320 nm in the coupled assay, 30 min
recorded-metric: Turnover
Lab note: write the figure by itself, no unit.

Query: Report Turnover for SEQ ID NO:14 (protein, mutant HPPD polypeptide) MADLYENPMGLMGFEFIEFASPTPGTLEPIFEIMGFTKVATHRSKNVHLYRQGEINLILNNEPNSIASYFAAEHGPSVCGMAFRVKDSQKAYNRALELGAQPIHIDTGPMELNLPAIKGIGGAPLYLIDRFGEGSSIYDIDFVYLEGVERNPVGAGLKVIDHLTHNVYRGRMVYWANFYEKLFNFREARYFDIKGEYTGLTSKAMSAPDGMIRIPLNEESSKGAGQIEEFLMQFNGEGIQHVAFLTDDLVKTWDALKKIGMRFMTAPGDEYYEMLEGRLPDHGEPVDQLQARGILLDGSSVEGDKRLLLQIFSEKLMGPVFFEFIQRKGDDGFGPDSFKVLFESMERDQVRRGVLTAD please.
Result: 0.18
